Assay: Human HepG2 cell viability assay in 384 well format
Type: toxicity, cell-based
Design: dose 125 nL, time 70.5 hour; concentration not given beside the values
Conditions: HepG2 cells, read-out: Inhibition
QUANTITY_NAME: cytotoxicity at 70.5 h (%)
Give just the numeric value; % need not be written.

Illustrative cases are given below, each with its answer.
| COMPOUND | RESULT_UNITS | cytotoxicity at 70.5 h |
| --- | --- | --- |
| N[C@@H]1c2ccccc2C2(CCN(c3ccc(C(F)(F)F)cn3)CC2)[C@H]1O | % | -15.9 |
| CC(C)[C@H]1CN(CC2CCC2)C[C@@H]1NC(=O)c1ccc(=O)[nH]c1 | % | 3.69 |

Value of measured cytotoxicity at 70.5 h for the entry Cc1cnc(N2CCC3(CCCN(c4ncc(F)cn4)C3)C2)nc1 (stereo not drawn) : -5.99

Value of measured cytotoxicity at 70.5 h for the entry O=C1N(Cc2cccc(F)c2F)CCCC1(O)CNCC1CCCCC1 (stereo not drawn) : 0.845

Value of measured cytotoxicity at 70.5 h for the entry `CN(Cc1ccc(F)cc1)[C@@H]1CN(C(=O)c2cccs2)C[C@H]1O` : -17.9

====

Test: Human HepG2 cell viability assay in 384 well format
Assay type: toxicity, cell-based
Parameters: dose 125 nL, time 70.5 hour; concentration not given beside the values
Details: HepG2 cells, read-out: Inhibition
Rule: condition met for cytotoxicity at 70.5 h not less than -10%, condition not met for anything less.

Check out these entries, answers already filled in.
| COMPOUND | ASSIGNED_CATEGORY |
| --- | --- |
| O=C([C@H]1COC[C@H]2CN(C3CCCC3)C[C@H]21)N1CCCCO1 | condition not met |
| Cc1noc(C)c1CN1CCC(c2nc3cc(Cl)ccc3o2)CC1 | condition not met |

Problem: Is it the case that N#Cc1ccnc(N2CCN(CC(O)c3ccccc3)CC2)c1 (stereo unspecified) has cytotoxicity at 70.5 h reaching or exceeding -10%?
Solution: condition met

Problem: Is it the case that `O=C(CNC(=O)N(Cc1ccoc1)C1CCCCC1)N1CCCC1` has cytotoxicity at 70.5 h reaching or exceeding -10%?
Solution: condition met

Problem: Is it the case that `O=c1cc(Cn2cncn2)nc2n1CCCN(CC1CC1)C2` has cytotoxicity at 70.5 h reaching or exceeding -10%?
Solution: condition not met

Problem: Is it the case that `NS(=O)(=O)c1ccc(NCc2ccco2)c2ncccc12` has cytotoxicity at 70.5 h reaching or exceeding -10%?
Solution: condition met

====

Below, each entry is listed with its recorded cytotoxicity at 70.5 h.
Experiment: Human HepG2 cell viability assay in 384 well format
Assay type: toxicity, cell-based
Set-up: dose 125 nL, time 70.5 hour; concentration not given beside the values
Conditions: HepG2 cells, read-out: Inhibition
Give just the numeric value; % need not be written.

| MOLECULE | cytotoxicity at 70.5 h [%] |
| --- | --- |
| O=S(=O)(NCCc1c[nH]c2cc(F)ccc12)C1CCOC1 (stereo unspecified) | 0.583 |
| CC(=O)N1CCC2(CCN(Cc3ccccn3)C2=O)C1 (stereo unspecified) | 3.63 |
| Cc1cnc(CN(C)C2CCN(Cc3nnc(C4CC4)o3)C2)o1 (stereo unspecified) | -4.32 |
| CC(C)C1CN(C(=O)c2nccnc2N)CCS1 (stereo unspecified) | -4.8 |
| Cc1cc(C(=O)N2CC[C@@]3(C[C@@H](NS(C)(=O)=O)CCO3)C2)no1 | -4.95 |

Value of measured cytotoxicity at 70.5 h for the entry Cc1nn(C)c(N(C)C)c1CNC(C)COc1ccc(F)cc1 (stereo unspecified) : -4.85

====

Assay: Human HepG2 cell viability assay in 384 well format
Format: toxicity, cell-based
Parameters: dose 125 nL, time 70.5 hour; concentration not given beside the values
Details: HepG2 cells, read-out: Inhibition
QUANTITY_NAME: cytotoxicity at 70.5 h (%)
Give just the numeric value; % need not be written.

Value of measured cytotoxicity at 70.5 h for the entry `CCn1c(N)nc2cc(C(=O)NCCc3nnc(C)s3)cnc21` : -24.8

Value of measured cytotoxicity at 70.5 h for the entry `COc1ccc(Cl)cc1C(=O)NCC1CCN(C(=O)c2ccoc2)CC1` : -15.3

====

Below, each entry is listed with its recorded cytotoxicity at 70.5 h.
Assay: Human HepG2 cell viability assay in 384 well format
Format: toxicity, cell-based
Parameters: dose 125 nL, time 70.5 hour; concentration not given beside the values
Conditions: HepG2 cells, read-out: Inhibition
Give just the numeric value; % need not be written.

Value of measured cytotoxicity at 70.5 h for the entry `COC(=O)CCCNC(=O)c1cc(COc2cncc(Cl)c2)on1` : 0.545

Value of measured cytotoxicity at 70.5 h for the entry `O=C(NCc1ccc(C(=O)N2CCCC2)cc1)c1cn2c(n1)CNCC2` : -3.69

Value of measured cytotoxicity at 70.5 h for the entry `Cc1nc(CN2CCO[C@@H]3CN(C(=O)CC4CC4)C[C@@H]3C2)cs1` : -1.45

Value of measured cytotoxicity at 70.5 h for the entry Cc1nc(C)n(CC2CCCN2Cc2nc3ccccc3nc2C)n1 (stereo unspecified) : 3.65

Value of measured cytotoxicity at 70.5 h for the entry `Cc1ccc(S(=O)(=O)NC[C@H]2OC[C@@H](NCc3ccncc3)[C@@H]2O)cc1` : -8.05

Value of measured cytotoxicity at 70.5 h for the entry `O=C(CC1CCCC1)N1CCn2cc(Cn3cccn3)nc2C1` : -11.5

====

Experiment: Human HepG2 cell viability assay in 384 well format
Type: toxicity, cell-based
Set-up: dose 125 nL, time 70.5 hour; concentration not given beside the values
Conditions: HepG2 cells, read-out: Inhibition
QUANTITY_NAME: cytotoxicity at 70.5 h (%)
Give just the numeric value; % need not be written.

Value of measured cytotoxicity at 70.5 h for the entry `Cc1cccc(C(=O)N2CCN(c3ccc(-n4cccc4)nn3)CC2)c1` : -7.5

Value of measured cytotoxicity at 70.5 h for the entry `CC(C)CNC(=O)c1c(-n2cnnn2)sc2c1CCC2` : -13.7

Value of measured cytotoxicity at 70.5 h for the entry `COc1c(CNC2(c3ccc(Cl)cc3)CCC2)c(C)nn1C` : 5.64

Value of measured cytotoxicity at 70.5 h for the entry O=C1CC(c2ccccc2)c2sc(C(=O)O)c(-c3ccccc3)c2N1 (stereo unspecified) : -8.23

Value of measured cytotoxicity at 70.5 h for the entry `CCNC(=O)[C@@H]1CCCN1[C@@H](C(=O)NC)c1ccccc1` : -8.33

Value of measured cytotoxicity at 70.5 h for the entry `CCn1ncc(-c2cc(C(F)F)n3nc(CCC(=O)O)nc3n2)c1C` : -1.79

Value of measured cytotoxicity at 70.5 h for the entry `COc1ccccc1CC(=O)N1CC[C@@]2(CCCO2)[C@@H](OC)C1` : 25.6

Value of measured cytotoxicity at 70.5 h for the entry `Cc1cc(C)cc(OCn2ccc(C(=O)O)n2)c1` : -10.3

Value of measured cytotoxicity at 70.5 h for the entry `Cc1cc(CN2CCN(C(=O)C(C)C)[C@@H]3CS(=O)(=O)C[C@@H]32)ccc1F` : -2.32

Value of measured cytotoxicity at 70.5 h for the entry `CN(C)c1ccc(NC(=O)c2ccnn2C)nc1` : 0.439

Value of measured cytotoxicity at 70.5 h for the entry Cc1nn(C)c(C)c1-c1ccc(=O)n(C(C)C(=O)NCc2ccco2)n1 (stereo unspecified) : -7.42

====

Experiment: Human HepG2 cell viability assay in 384 well format
Assay type: toxicity, cell-based
Parameters: dose 125 nL, time 70.5 hour; concentration not given beside the values
Conditions: HepG2 cells, read-out: Inhibition
Below, each entry is listed with its recorded cytotoxicity at 70.5 h.
Give just the numeric value; % need not be written.

Illustrative cases are given below, each with its answer.
| COMPOUND | RESULT_UNITS | cytotoxicity at 70.5 h |
| --- | --- | --- |
| CC(NC(=O)NCC1(O)CCC1)c1ccc(OCC2CC2)c(F)c1 (configuration not stated) | % | -12 |
| Clc1snnc1CN1CCCC1Cn1cncn1 (configuration not stated) | % | 53.6 |
| COCCn1ccc2c(C(=O)NC(C)C)cccc21 | % | -12.3 |
| NCC1Cc2cccc(-c3ccc(O)c(F)c3)c2O1 (configuration not stated) | % | -13.6 |
| CNC(=O)NC(=O)CCSCc1cc(Cl)cc2cccnc12 | % | -16.5 |

Value of measured cytotoxicity at 70.5 h for the entry `Cc1nsc(N2CCc3sccc3C2)n1` : -1.49

Value of measured cytotoxicity at 70.5 h for the entry `O=C(c1cnc(-c2ccco2)s1)N1CCOc2ncccc21` : -1.16

====

Assay: Human HepG2 cell viability assay in 384 well format
Format: toxicity, cell-based
Design: dose 125 nL, time 70.5 hour; concentration not given beside the values
Conditions: HepG2 cells, read-out: Inhibition
QUANTITY_NAME: cytotoxicity at 70.5 h (%)
Give just the numeric value; % need not be written.

Illustrative cases are given below, each with its answer.
| MOLECULE | cytotoxicity at 70.5 h, % |
| --- | --- |
| CCC(=O)Nc1ccc(F)cc1OC | 14.6 |
| Cc1ccc(NCC2(O)CCNCC2)cc1C | -1.72 |
| O=C1N(CCCc2ccccc2)CCCC1(O)CNCC1CCCCC1 (centres undefined) | 6.76 |
| Cc1nc(CN2CCCC(Cn3cc(CCO)nn3)C2)c[nH]1 (centres undefined) | -1.03 |

Value of measured cytotoxicity at 70.5 h for the entry `CC(=O)N(C)Cc1ccccc1NC(=O)c1ccccc1C` : -2.28

Value of measured cytotoxicity at 70.5 h for the entry `O=C(c1ccn(-c2cccc(F)c2)n1)N1CCN(CC2CC2)CC1` : -7.87
